# target-or-test-system: ErbB-4 receptor-Ig fusion (human) (UniProt Q15303)
# method: displacement of 125I-HRG-β1 177-244 from ErbB-4-Ig
pEC50: −log10 of the molar value.
Threshold rule: pEC50 greater than or equal to 7 is criterion met; below that, criterion not met.

Is reported pEC50 greater than or equal to 7 here: Trx-HRG-β1 146-244 L179A fusion (ligand) DDDDKAYVSSESPIRISVSTEGANTSSSTSTSTTGTSHAVKCAEKEKTFCVNGGECFMVKDLSNPSRYLCKCPNEFTGDRCQNYVMASFYKHLGIEFMEAEELY
criterion met

Check this binder for pEC50 at or above 7: Trx-HRG-β1 146-244 N192A fusion (ligand) DDDDKAYVSSESPIRISVSTEGANTSSSTSTSTTGTSHLVKCAEKEKTFCVAGGECFMVKDLSNPSRYLCKCPNEFTGDRCQNYVMASFYKHLGIEFMEAEELY
criterion not met

Could you please find out whether Trx-HRG-β1 146-244 K200A fusion (ligand) DDDDKAYVSSESPIRISVSTEGANTSSSTSTSTTGTSHLVKCAEKEKTFCVNGGECFMVADLSNPSRYLCKCPNEFTGDRCQNYVMASFYKHLGIEFMEAEELY has pEC50 that meets 7 or exceeds it?
criterion met

Form field: pEC50 at least 7? Entry: Trx-HRG-β1 146-244 T217A fusion (ligand) DDDDKAYVSSESPIRISVSTEGANTSSSTSTSTTGTSHLVKCAEKEKTFCVNGGECFMVKDLSNPSRYLCKCPNEFAGDRCQNYVMASFYKHLGIEFMEAEELY
criterion met

Check if pEC50 >= 7 (inclusive). Item: Trx-HRG-β1 146-244 F189A fusion (ligand) DDDDKAYVSSESPIRISVSTEGANTSSSTSTSTTGTSHLVKCAEKEKTACVNGGECFMVKDLSNPSRYLCKCPNEFTGDRCQNYVMASFYKHLGIEFMEAEELY
criterion not met

Does the binder Trx-HRG-β1 146-244 S177A fusion (ligand) DDDDKAYVSSESPIRISVSTEGANTSSSTSTSTTGTAHLVKCAEKEKTFCVNGGECFMVKDLSNPSRYLCKCPNEFTGDRCQNYVMASFYKHLGIEFMEAEELY have recorded pEC50 that is 7 or more?
criterion met

Decide: is the reported value of pEC50 for Trx-HRG-β1 146-244 Y224A fusion (ligand) DDDDKAYVSSESPIRISVSTEGANTSSSTSTSTTGTSHLVKCAEKEKTFCVNGGECFMVKDLSNPSRYLCKCPNEFTGDRCQNAVMASFYKHLGIEFMEAEELY equal to or greater than 7?
criterion met
